# assayed_target: T1, IL-18 receptors on HEK-Blue IL-18 reporter cells (UniProt Q13478 19-541; O95256 20-599, limits assumed); also: unit not given here
# T1 sequence (looked up) 1: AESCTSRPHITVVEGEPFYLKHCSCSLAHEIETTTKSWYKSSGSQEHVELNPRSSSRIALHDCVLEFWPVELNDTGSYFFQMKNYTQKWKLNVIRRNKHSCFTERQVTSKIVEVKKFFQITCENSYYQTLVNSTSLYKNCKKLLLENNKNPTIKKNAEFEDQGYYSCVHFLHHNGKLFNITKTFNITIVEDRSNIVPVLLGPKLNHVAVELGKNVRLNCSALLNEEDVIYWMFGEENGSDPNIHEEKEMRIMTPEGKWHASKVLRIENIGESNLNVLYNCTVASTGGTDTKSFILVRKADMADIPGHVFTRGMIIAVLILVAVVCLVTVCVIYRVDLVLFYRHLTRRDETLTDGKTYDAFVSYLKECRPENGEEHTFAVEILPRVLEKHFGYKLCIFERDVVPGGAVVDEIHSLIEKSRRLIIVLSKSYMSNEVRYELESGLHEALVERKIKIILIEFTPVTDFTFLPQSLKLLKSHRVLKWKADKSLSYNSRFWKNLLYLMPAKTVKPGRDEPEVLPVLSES
# T1 sequence (looked up) 2: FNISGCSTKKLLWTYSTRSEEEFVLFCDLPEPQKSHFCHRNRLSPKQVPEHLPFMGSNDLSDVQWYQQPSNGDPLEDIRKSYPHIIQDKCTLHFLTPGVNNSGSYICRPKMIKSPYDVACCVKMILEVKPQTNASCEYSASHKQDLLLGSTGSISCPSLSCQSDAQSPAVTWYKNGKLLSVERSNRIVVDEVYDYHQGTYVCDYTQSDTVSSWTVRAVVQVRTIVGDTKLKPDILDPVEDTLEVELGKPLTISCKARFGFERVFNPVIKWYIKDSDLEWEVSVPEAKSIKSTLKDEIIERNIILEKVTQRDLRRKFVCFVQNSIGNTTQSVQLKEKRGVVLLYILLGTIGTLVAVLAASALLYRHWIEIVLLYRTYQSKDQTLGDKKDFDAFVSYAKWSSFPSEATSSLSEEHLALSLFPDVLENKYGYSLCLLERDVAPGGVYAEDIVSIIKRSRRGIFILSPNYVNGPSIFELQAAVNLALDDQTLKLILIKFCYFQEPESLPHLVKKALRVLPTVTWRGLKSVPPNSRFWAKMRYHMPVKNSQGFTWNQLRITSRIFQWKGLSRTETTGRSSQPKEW
# assay_summary: cell-based or functional assay
In plain terms, low Activity, No BP, DF-500000, meaning strictly below 0.08, gives 1, and everything else gives -1.

Solved entries:
[[record]]
binder = "IL-18 variant G3S, E6G, D54V, S55K, T63S, N91Y, R104T (ligand) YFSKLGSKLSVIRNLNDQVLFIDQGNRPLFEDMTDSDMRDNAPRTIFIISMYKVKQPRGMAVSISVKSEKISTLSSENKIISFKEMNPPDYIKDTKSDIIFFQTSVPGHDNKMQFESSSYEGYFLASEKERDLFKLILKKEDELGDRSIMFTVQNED"
class_label = -1

[[record]]
binder = "IL-18 variant G3Q, E6D, K53S, D54I, S55E, T63S, N91S, R104Q (ligand) YFQKLDSKLSVIRNLNDQVLFIDQGNRPLFEDMTDSDMRDNAPRTIFIISMYSIEQPRGMAVSISVKSEKISTLSSENKIISFKEMNPPDSIKDTKSDIIFFQQSVPGHDNKMQFESSSYEGYFLASEKERDLFKLILKKEDELGDRSIMFTVQNED"
class_label = 1


Record IL-18 variant G3P, E6K, D54Y, S55P, T63S, N91S, R104Q (ligand) YFPKLKSKLSVIRNLNDQVLFIDQGNRPLFEDMTDSDMRDNAPRTIFIISMYKYPQPRGMAVSISVKSEKISTLSSENKIISFKEMNPPDSIKDTKSDIIFFQQSVPGHDNKMQFESSSYEGYFLASEKERDLFKLILKKEDELGDRSIMFTVQNED : is its Activity, No BP, DF-500000 strictly below 0.08?
-1

Also check IL-18 variant G3L, E6Y, D54T, T63S, N91Y, R104Q (ligand) YFLKLYSKLSVIRNLNDQVLFIDQGNRPLFEDMTDSDMRDNAPRTIFIISMYKTSQPRGMAVSISVKSEKISTLSSENKIISFKEMNPPDYIKDTKSDIIFFQQSVPGHDNKMQFESSSYEGYFLASEKERDLFKLILKKEDELGDRSIMFTVQNED
-1

Also check IL-18 variant G3P, E6R, D54W, S55Q, T63S, N91T, R104H (ligand) YFPKLRSKLSVIRNLNDQVLFIDQGNRPLFEDMTDSDMRDNAPRTIFIISMYKWQQPRGMAVSISVKSEKISTLSSENKIISFKEMNPPDTIKDTKSDIIFFQHSVPGHDNKMQFESSSYEGYFLASEKERDLFKLILKKEDELGDRSIMFTVQNED
-1

Also check IL-18 variant E6T, D54P, S55K, R104S (ligand) YFGKLTSKLSVIRNLNDQVLFIDQGNRPLFEDMTDSDMRDNAPRTIFIISMYKPKQPRGMAVTISVKSEKISTLSSENKIISFKEMNPPDNIKDTKSDIIFFQSSVPGHDNKMQFESSSYEGYFLASEKERDLFKLILKKEDELGDRSIMFTVQNED
-1

Also check IL-18 variant G3Q, E6H, K53T, D54S, S55Y, N91Y, R104K (ligand) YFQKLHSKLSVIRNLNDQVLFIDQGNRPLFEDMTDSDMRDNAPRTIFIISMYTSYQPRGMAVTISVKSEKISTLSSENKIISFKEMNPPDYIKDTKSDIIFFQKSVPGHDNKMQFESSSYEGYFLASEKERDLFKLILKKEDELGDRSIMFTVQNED
-1

Also check IL-18 variant E6N, D54N, S55N, N91H, R104P (ligand) YFGKLNSKLSVIRNLNDQVLFIDQGNRPLFEDMTDSDMRDNAPRTIFIISMYKNNQPRGMAVTISVKSEKISTLSSENKIISFKEMNPPDHIKDTKSDIIFFQPSVPGHDNKMQFESSSYEGYFLASEKERDLFKLILKKEDELGDRSIMFTVQNED
1

Also check IL-18 variant G3P, E6K, D54R, S55P, T63A, N91V (ligand) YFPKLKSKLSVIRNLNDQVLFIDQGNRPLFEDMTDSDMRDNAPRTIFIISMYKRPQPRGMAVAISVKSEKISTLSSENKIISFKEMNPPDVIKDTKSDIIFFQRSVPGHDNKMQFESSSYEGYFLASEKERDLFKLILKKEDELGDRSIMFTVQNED
-1
